tested on: rodent lifetime carcinogenesis bioassay, tumor incidence TD50; assay: carcinogenic potency in animals, long-term in vivo studies, CPDB compilation (AID 1745844); conditions: rat; strain Sprague-Dawley; males; inhaled; site: liver; lesion: angiosarcoma; dosed 25 weeks; study length 115 weeks
endpointName: TD50 (mg/kg/day)

>>> df
   compoundstructurestring  endpointname  unitlabel  measurement
0                    C=CCl          TD50  mg/kg/day          871

###

system: rodent lifetime carcinogenesis bioassay, tumor incidence TD50; assay: carcinogenic potency in animals, long-term in vivo studies, CPDB compilation (AID 1745844); conditions: rat; strain F344/DuCrj; females; in drinking water; site: forestomach; lesion: papilloma; dosed 97 weeks; study length 112 weeks
endpointName: TD50

>>> print(df.to_string())
   compoundstructurestring       measurement
0         CCOC(=O)N(CC)N=O  0.0796 mg/kg/day

###

system: rodent lifetime carcinogenesis bioassay, tumor incidence TD50; test: carcinogenic potency in animals, long-term in vivo studies, CPDB compilation (AID 1745844); conditions: rat; strain Fischer 344; males; by gavage; site: subcutaneous tissue; lesion: fibroma + sarcoma; dosed 94 weeks; study length 104 weeks
endpointName: TD50

>>> print(df.to_string())
   compoundstructurestring  endpointname     measurement
0              ClCC(Cl)CCl          TD50  19.6 mg/kg/day

###

test system: rodent lifetime carcinogenesis bioassay, tumor incidence TD50; assay: carcinogenic potency in animals, long-term in vivo studies, CPDB compilation (AID 1745844); conditions: mouse; strain B6C3F1; males; inhaled; site: Harderian gland; lesion: adenocarcinoma + adenocarcinoma, bilateral; dosed 52 weeks; study length 104 weeks
endpointName: TD50 (mg/kg/day)

>>> df
   compoundstructurestring  measurement
0                   C=CC=C         88.9

###

tested on: rodent lifetime carcinogenesis bioassay, tumor incidence TD50; experiment: carcinogenic potency in animals, long-term in vivo studies, CPDB compilation (AID 1745844); settings: mouse; strain B6C3F1; males; in feed; site: any site (literature study); lesion: several types; types named in the paper; dosed 78 weeks; study length 92 weeks
Activity calls are given as the source filed them. The rule behind the calls is not given here.
endpointName: TD50

>>> print(df.to_string())
                    compoundstructurestring                              testedsystem               measurement
0  CCC[CH2][Sn]([CH2]CCC)([O]C(C)=O)[O]C(C)=O  rodent lifetime carcinogenesis bioassay, tumor incidence TD50  178 mg/kg/day (inactive)

###

tested on: rodent lifetime carcinogenesis bioassay, tumor incidence TD50; experiment: carcinogenic potency in animals, long-term in vivo studies, CPDB compilation (AID 1745844); conditions: rat; strain Fischer 344; males; in feed; site: any site (literature study); lesion: several types; types named in the paper; dosed 55 weeks; study length 59 weeks
endpointName: TD50 (mg/kg/day)

>>> print(df.to_string())
                    compoundstructurestring  measurement
0  C/C=C(/C)C(=O)O[C@H]1CCN2CC=C(COC(=O)[C@@](O)([C@H](C)OC)C(C)(C)O)[C@H]12        0.217

###

test system: rodent lifetime carcinogenesis bioassay, tumor incidence TD50; test: carcinogenic potency in animals, long-term in vivo studies, CPDB compilation (AID 1745844); details: rat; strain Fischer 344; males; inhaled; site: adrenal medulla; lesion: pheochromocytoma benign, bilateral + pheochromocytoma, malignant + pheochromocytoma, benign; dosed 103 weeks; study length 104 weeks
endpointName: TD50 (mg/kg/day)

>>> df
   compoundstructurestring  endpointname  measurement
0                     CC#N          TD50         14.8
